# assay.target: recombinant cGAS (aa147-522) (Homo sapiens, UniProt Q8N884)
# Construct: recombinant cGAS (aa147-522); His6-SUMO (N, cleaved yes)
# Sequence (Q8N884 147-522): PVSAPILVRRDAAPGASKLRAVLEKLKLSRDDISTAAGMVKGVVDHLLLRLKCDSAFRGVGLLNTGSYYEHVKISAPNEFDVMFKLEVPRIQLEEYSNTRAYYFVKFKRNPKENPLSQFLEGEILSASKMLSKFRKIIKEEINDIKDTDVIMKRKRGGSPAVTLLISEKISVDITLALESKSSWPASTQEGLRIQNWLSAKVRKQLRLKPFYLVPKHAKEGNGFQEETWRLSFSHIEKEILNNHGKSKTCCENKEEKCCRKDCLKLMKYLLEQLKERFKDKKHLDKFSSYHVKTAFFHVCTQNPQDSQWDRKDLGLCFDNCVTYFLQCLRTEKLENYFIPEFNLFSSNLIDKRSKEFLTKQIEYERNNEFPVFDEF
# assay.summary: In vitro assay for inhibition of cGAS activity (ATP consumption, Kinase Glo)
# run.parameters: 37° C. 20 minutes, read-out: Activity (Inhibition of cGAS enzyme activity in vitro, IC50)
pIC50: −log10 of the molar value.
Each entry below carries its recorded pIC50.

Some solved entries appear below for comparison.
>>> test_result("CN1C(=O)S/C(=C\\c2cc(OCc3ncc(N)cn3)c(O)cc2Br)C1=O")
"5.00 to 6.30"
>>> test_result("CN1C(=O)S/C(=C\\c2cc(C(C)(F)F)c(O)cc2Br)C1=O")
"5.00 to 6.30"

Let us move to another entry and its pIC50.
Hello, I am looking for reported pIC50 with recombinant cGAS (aa147-522) (Homo sapiens, UniProt Q8N884) for CCOc1cc(/C=C2\Sc3ncccc3C2=O)c(Br)cc1O . Could you help?
≥ 6.30
